Listed here are compounds together with their documented EC50.
system: NQO1 specific enzyme activity in BEAS-2B cells; experiment: BEAS-2B NQO1 MTT assay; type: cell-based; settings: Homo sapiens, BEAS-2B, 48 h, BEAS-2B cells, 48 hours with compound, MTT readout; read-out: EC50 of NQO1 specific activity induction

| Compound | EC50 |
| --- | --- |
| Cc1ccc2c(c1)OC(C)(C)CN(Cc1cc([C@@H](CC(=O)O)c3ccc4c(nnn4C)c3C)ccc1C)C2 [Example 179] | 10 to 100 nM |
| CCC1CN(Cc2cc(C(CC(=O)O)c3ccc4c(nnn4C)c3C)ccc2C)Cc2ccc(Br)cc2O1 (stereo not shown) [Example 82] | 10 to 100 nM |
| CCC1CN(Cc2cc(C(CC(=O)O)c3cc(OC)c4c(c3)nnn4C)ccc2C)Cc2ccccc2O1 (stereo not shown) [compound 46] | 100 to 1000 nM |
| Cc1ccc([C@@H](CC(=O)O)c2ccc3c(nnn3C)c2C)cc1CN1Cc2cccc(F)c2OC(C)(C)C1 [Example 177] | 10 to 100 nM |

###

Parameter pEC50: see the listing below.
system: NQO1 specific enzyme activity in BEAS-2B cells; experiment: BEAS-2B NQO1 MTT assay; type: cell-based; details: Homo sapiens, BEAS-2B, 48 h, BEAS-2B cells, 48 hours with compound, MTT readout; read-out: EC50 of NQO1 specific activity induction
pEC50: −log10 of the molar value. Counter-ions that a name gives are not always drawn.
Parameter measured: pEC50

| Compound | Parameter measured | Result |
| --- | --- | --- |
| CCCC1CN(Cc2cc(C(CC(=O)O)c3ccc4c(nnn4C)c3C)ccc2C)Cc2ccccc2O1 (centres unmarked) [Example 71, Formic Acid Salt] | pEC50 | 6.00 to 7.00 |
| CC[C@@H]1CN(Cc2cc(C(CCc3cn(CC)nn3)C(C)C(=O)O)ccc2C)Cc2ncccc2O1 (some centres unmarked) [Example 224, Formic Acid Salt] | pEC50 | 6.00 to 7.00 |
| CC[C@@H]1CN(Cc2cc(C(CC(=O)O)c3ccc4c(nnn4C)c3C)ccc2C)Cc2ncccc2O1 (some centres unmarked) [Example 79] | pEC50 | 5.00 to 6.00 |
| Cc1c(C(CC(=O)O)c2ccc(Cl)c(CN3CCCC(O)C3)c2)ccc2c1nnn2C (centres unmarked) [Example 161] | pEC50 | 5.00 to 6.00 |
| CC[C@@H]1CN(Cc2cc(C(CCc3cn(CC)nn3)C(C)(C)C(=O)O)ccc2C)Cc2ncccc2O1 (some centres unmarked) [Example 216] | pEC50 | 8.00 to 9.00 |
| CC[C@@H]1CN(Cc2cc(C(CC(=O)O)c3ccc4c(nnn4C)c3C)ccc2C)Cc2cccnc2O1 (some centres unmarked) [Example 116, Formic Acid Salt] | pEC50 | 5.00 to 6.00 |
| Cc1ccc(C(CC(=O)O)c2ccc3c(nnn3C)c2C)cc1CN1CCOc2ccc(C#N)cc2C1 (centres unmarked) [Example 14] | pEC50 | 5.00 to 6.00 |
| Cc1c(C(CC(=O)O)c2ccc(Cl)c(CN3Cc4ncccc4OC(C)(C)C3)c2)ccc2c1nnn2C (single isomer, unassigned; isomer 1) [Example 262] | pEC50 | 7.00 to 8.00 |
| CCC1CCN(Cc2nccn2Cc2cc(C(c3ccc4c(nnn4C)c3C)C(C)(C)C(=O)O)ccc2Cl)CC1 (centres unmarked) [Example 236] | pEC50 | > 9.00 |
| Cc1ccc([C@@H](c2ccc3c(nnn3C)c2C)C(C)(C)C(=O)O)cc1Cn1ccnc1CC1CCCCCC1 [Example 235] | pEC50 | > 9.00 |
| CC[C@@H]1CN(Cc2cc([C@@H](c3ccc4c(nnn4CC)c3F)[C@@H](C)C(=O)O)ccc2C)Cc2ncccc2O1 [Example 191] | pEC50 | 8.00 to 9.00 |
| Cc1ccc(C(CC(=O)O)c2ccc3c(nnn3C)c2C)cc1Cn1ccnc1CN1CCC(F)(F)CC1 (centres unmarked) [Example 149] | pEC50 | 6.00 to 7.00 |
| CC[C@@H]1CN(Cc2cc([C@@H](c3ccc4c(nnn4C)c3C)C(C)(C)C(=O)NS(C)(=O)=O)ccc2C)Cc2cnccc2O1 [Example 205, Trifluoroacetic Acid Salt] | pEC50 | 6.00 to 7.00 |
| CCn1nnc2c(C)c([C@H](c3ccc(C)c(Cn4ccnc4CN4CCCCC4)c3)[C@@H](C)C(=O)O)ccc21 [Example 210] | pEC50 | 7.00 to 8.00 |
| Cc1ccc(C(c2ccc3c(nnn3C)c2C)C(C)(C)C(=O)O)cc1Cn1ccnc1CN1CCCC1 (centres unmarked) [Example 124, Sodium salt] | pEC50 | 7.00 to 8.00 |
| Cc1ccc(C(c2ccc3c(nnn3C)c2C)C2(C(=O)O)CC2)cc1CN1Cc2cnccc2OC(C)(C)C1 (centres unmarked) [Example 211, Trifluoroacetic Acid Salt] | pEC50 | 7.00 to 8.00 |
| CC[C@@H]1CN(Cc2nc(C(c3ccc4c(nnn4C)c3C)C(C)(C)C(=O)O)ccc2C)Cc2cnccc2O1 (some centres unmarked) [Example 212, Formic Acid Salt] | pEC50 | 7.00 to 8.00 |
| CC[C@@H]1CN(Cc2cc(C(c3ccc4c(nnn4C)c3C)C(C)(C)C(=O)O)cnc2C)Cc2cnccc2O1 (some centres unmarked) [Example 213, Trifluoroacetic Acid Salt] | pEC50 | 6.00 to 7.00 |
| Cc1ccc(C(c2ccc3c(nnn3C)c2C)C(C)(C)C(=O)O)cc1CN1Cc2cccnc2OC(C)(C)C1 (centres unmarked) [Example 23, Trifluoroacetic Acid] | pEC50 | 7.00 to 8.00 |
| CC[C@@H]1CN(Cc2cc([C@H](CC(=O)O)c3ccc4c(nnn4CC)c3F)ccc2C)Cc2ccccc2O1 (relative stereo) [compound 182] | pEC50 | 6.00 to 7.00 |
| Cc1ccc(C(CC(=O)O)c2ccc3c(nnn3C)c2C)cc1CN1Cc2cccnc2OC(C)(C)C1 (centres unmarked) [Example 96] | pEC50 | 6.00 to 7.00 |
| CC[C@@H]1CN(Cc2cc([C@H](CC(=O)O)c3ccc4c(nnn4C)c3C)ccc2C)Cc2ccncc2O1 [Example 259] | pEC50 | 6.00 to 7.00 |
| Cc1ccc(C(CC(=O)O)c2ccc3c(nnn3C)c2C)cc1CN1CCCC(n2cccn2)C1 (centres unmarked) [Example 9] | pEC50 | 5.00 to 6.00 |
| CC[C@@H]1CN(Cc2cc(C(CCc3cn(CC)nn3)C(C)(C)C(=O)O)ccc2C)Cc2ccncc2O1 (some centres unmarked) [Example 220, Trifluoroacetic Acid Salt] | pEC50 | 7.00 to 8.00 |
| CCn1nnc2c(C)c([C@H](c3ccc(C)c(CN4Cc5cnccc5OC(C)(C)C4)c3)[C@@H](C)C(=O)O)ccc21 [Example 196, Trifluoroacetic acid salt] | pEC50 | 8.00 to 9.00 |
| COc1ccc2c(c1)CN(Cc1cc([C@H](CC(=O)O)c3ccc4c(nnn4C)c3C)ccc1C)CC(C)(C)O2 [Example 165, Formic Acid Salt] | pEC50 | 8.00 to 9.00 |
